The reported measurements were obtained from ChEMBL document CHEMBL1201862.

System: TK-10
protocol details: NCI tumour cell line growth inhibition, 48 h
Active and inactive are the calls of the source. Rule as the data show it: active = GI50 up to about 1.1 µM and inactive = higher.
Outcome codes: active, inactive

molecule: CC[N+]1(C)CCC(O)(c2ccc(C)cc2)C(C(=O)c2ccc(C)cc2)C1 (configuration not stated)
target under test: TK-10
discrete label: inactive
--
molecule: Fc1nc(F)nc(-c2c3ccccc3c3n2CCS3)n1
target under test: TK-10
discrete label: inactive
--
molecule: CN(C)C(=O)C(NCCO)c1ccccc1 (configuration not stated)
target under test: TK-10
discrete label: inactive
--
molecule: Cc1ccc2cccc(OC(=O)c3cc4c(cc3Cl)Sc3nccn3S4(=O)=O)c2n1
target under test: TK-10
discrete label: inactive
--
molecule: Oc1ccc([Te]CCNCC[Te]c2ccc(O)cc2)cc1
target under test: TK-10
discrete label: inactive
--
molecule: O=C(Nc1nc(C23CC4CC(CC(C4)C2)C3)cs1)c1cc2c(ccc3ccccc32)oc1=O
target under test: TK-10
discrete label: inactive
--
molecule: CC1=Nc2ccccc2C1C(Cc1ccccc1N)c1c(C)[nH]c2ccccc12 (configuration not stated)
target under test: TK-10
discrete label: inactive
--
molecule: Cc1ccc(S(=O)(=O)Nc2ccccc2C(C)(C)C)cc1
target under test: TK-10
discrete label: inactive
--
molecule: COc1cccc([C@@H]2C/C(=N\NC(=O)C(=O)N[C@@H](C)c3ccccc3)c3ccccc3N2)c1
target under test: TK-10
discrete label: inactive
--
molecule: C=CC(=O)N1C/C(=C\c2ccc(Cl)cc2)C(=O)/C(=C/c2ccc(Cl)cc2)C1
target under test: TK-10
discrete label: inactive
--
molecule: COc1cc2cc(C(=O)N3CC(COS(C)(=O)=O)c4ccc(O)cc43)[nH]c2c(OC)c1OC (configuration not stated)
target under test: TK-10
discrete label: active
--
molecule: COc1cc(C2SCC(=O)N2Cc2ccccc2)cc(OC)c1OC (configuration not stated)
target under test: TK-10
discrete label: inactive
--
molecule: Cc1cc(C)c2c(c1)CC1(Cc3c(C)ccc(C)c3C1=O)C2=O (configuration not stated)
target under test: TK-10
discrete label: inactive
--
molecule: CN(C)CCCNC(=O)c1c(-c2cccnc2)cnc2ccccc12
target under test: TK-10
discrete label: inactive
--
molecule: COc1cc(C2C(Cl)C(=O)N2NC(=O)c2ccc(NC(C)=O)cc2)cc(OC)c1OC (configuration not stated)
target under test: TK-10
discrete label: inactive
--
molecule: O=C(C(=O)N1CCc2ccccc21)c1c[nH]c2ccccc12
target under test: TK-10
discrete label: inactive
--
molecule: NC(=O)c1ncn(C2CCC(CP(=O)(O)O)C2)c1N (configuration not stated)
target under test: TK-10
discrete label: inactive
--
molecule: CC(C)c1ccccc1SC1CC(=O)CC(Sc2ccccc2C(C)C)C12O[C@H](c1ccccc1)[C@@H](c1ccccc1)O2 (some centres not stated)
target under test: TK-10
discrete label: inactive
--
molecule: C1=CC2C(C3CN(c4ccccc4)N=C13)C1C3C4C=CC21C=CC43 (configuration not stated)
target under test: TK-10
discrete label: inactive
--
molecule: O=C(Nn1c(-c2ccccc2)nc2ccccc2c1=O)c1ccc(Cl)cc1
target under test: TK-10
discrete label: inactive
--
molecule: COc1c(C(C)(C)C)cc(CC2C(=O)C=CC2=O)cc1C(C)(C)C
target under test: TK-10
discrete label: inactive
--
molecule: CCOC(=O)CCCn1cc(C(=O)OC)nn1
target under test: TK-10
discrete label: inactive
